src = PubChem BioAssay AID1399

- subjectOfTest: UniProt:P40763
- experimentNotes: blockers of STAT3 signaling, concentration series – cell-based, dose response (AID 1399)
- conditionInfo: human cell STAT3 reporter inhibition
The source made the active and inactive calls. The limit is not given here; nearly all actives have IC50 up to about 8.9 µM.
Outcome field: choose from 1 (yes) (active), 0 (no) (inactive)

// below: answered compounds
compound	classAssignment
Cc1cccc(N2CCN(C(=O)CSCc3c(C)noc3C)CC2)c1C	1 (yes)
Cc1ccc(N2C(=O)c3ccccc3C2O)nc1 (stereo not drawn)	1 (yes)
Oc1ccc(-c2n[nH]c(=S)n2-c2ccc3c(c2)OCCO3)c(O)c1	1 (yes)
CC[n+]1ccccc1/C=C/c1ccc(N(C)C)cc1	1 (yes)
CN1/C(=C\C(=O)C[n+]2ccc3ccccc3c2)C(C)(C)c2ccccc21	1 (yes)
Nc1cc(-c2ccccc2)nn1Cc1ccc(Cl)cc1	1 (yes)
Clc1ccc2ncc(-c3nnnn3-c3ccccc3)c(-c3ccccc3)c2c1	1 (yes)
COc1ccc(Br)cc1/C(C)=N/NC1=NCCN1	1 (yes)

Ask: Tell me the recorded outcome of this test for CCC(C)NC(=S)Nc1ccc(C(=O)OC)cc1 (stereo not drawn) .
Reply: 1 (yes)

Ask: Tell me the recorded outcome of this test for `CCOC(=O)Cc1csc(SCC(=O)c2c(N)n(CC(C)C)c(=O)n(C)c2=O)n1` .
Reply: 1 (yes)

Ask: Tell me the recorded outcome of this test for `Cc1ccc2c(C)nc(Nc3nc(CSc4nc5ccccc5[nH]4)cc(=O)[nH]3)nc2c1` .
Reply: 1 (yes)

Ask: Tell me the recorded outcome of this test for `COc1cc(OC)cc(C(=O)Nc2ccc(-c3nc4ccccc4o3)cc2)c1` .
Reply: 0 (no)

Ask: Tell me the recorded outcome of this test for `O=C(Nc1cccc(S(=O)(=O)Nc2ccccc2Cl)c1)c1ccc(Cl)nc1` .
Reply: 1 (yes)
